Target: Protein phosphatase 1D (Homo sapiens) (UniProt O15297)
Sequence (O15297 whole entry, looked up): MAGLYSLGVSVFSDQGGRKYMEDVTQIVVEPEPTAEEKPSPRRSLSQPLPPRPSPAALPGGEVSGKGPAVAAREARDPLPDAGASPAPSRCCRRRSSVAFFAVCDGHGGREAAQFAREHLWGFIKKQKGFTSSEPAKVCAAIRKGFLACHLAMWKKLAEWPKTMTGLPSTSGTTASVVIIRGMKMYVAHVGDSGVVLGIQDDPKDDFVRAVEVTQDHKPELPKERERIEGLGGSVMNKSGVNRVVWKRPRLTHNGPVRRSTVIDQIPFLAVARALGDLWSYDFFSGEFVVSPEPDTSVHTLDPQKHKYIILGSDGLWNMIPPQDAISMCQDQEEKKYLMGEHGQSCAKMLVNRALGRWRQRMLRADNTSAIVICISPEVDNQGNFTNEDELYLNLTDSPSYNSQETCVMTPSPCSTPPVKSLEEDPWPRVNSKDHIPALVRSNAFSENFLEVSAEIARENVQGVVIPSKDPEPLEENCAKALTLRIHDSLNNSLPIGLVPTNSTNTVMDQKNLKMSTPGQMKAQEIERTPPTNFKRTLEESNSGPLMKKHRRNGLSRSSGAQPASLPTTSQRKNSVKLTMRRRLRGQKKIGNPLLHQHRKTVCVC
Assay: RapidFire Mass Spectrometry qHTS Assay for Modulators of WT P53-Induced Phosphatase 1 (WIP1) (AID 1347424);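 note: amount of dephosphorylated VEPPL-S-QETFS peptide product formed by WIP1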
Settings: WIP1 dephosphorylation of phosphopeptide, RapidFire MS; series mostly up to 63 µM
Inconclusive results are not listed. Calls of active or inactive are those of the source. Calls come from the whole dose curve; as a rule, active = well fitted inhibition curve with a large enough effect; inconclusive = small, poorly fitted or top-dose-only effect; inactive = no such curve, though single readings can be large or run the other way.
Classes used: TRUE (active), FALSE (inactive)

{"columns": ["compound", "class"],
 "data": [
  ["C=C1CC[C@@]2(O)[C@H]3Cc4ccc(O)c5c4[C@@]2(CCN3CC2CC2)[C@H]1O5", "FALSE"],
  ["C[C@]12C/C(=C/O)C(=O)C[C@@H]1CC[C@@H]1[C@@H]2CC[C@@]2(C)[C@H]1CC[C@]2(C)O", "FALSE"],
  ["N[C@@H](Cc1ccc(Oc2cc(I)c(O)c(I)c2)c(I)c1)C(=O)O", "TRUE"],
  ["Clc1ccc(COC(Cn2ccnc2)c2ccc(Cl)cc2Cl)cc1 (configuration not stated)", "FALSE"],
  ["O=[N+]([O-])c1cc([As](=O)(O)O)ccc1O", "FALSE"],
  ["Oc1ccccc1-c1ccccc1", "FALSE"],
  ["CCN(CC)CCOC(=O)C(O)(c1ccccc1)c1ccccc1", "FALSE"],
  ["CCOP(=S)(OCC)Oc1cc(C)nc(C(C)C)n1", "FALSE"],
  ["O=P1(NCCCl)OCCCN1CCCl (configuration not stated)", "FALSE"],
  ["Cc1ccc2c(c1)C1CN(C)CCC1N2 (configuration not stated)", "FALSE"],
  ["CC(C)=CC1C(C(=O)OCc2cccc(Oc3ccccc3)c2)C1(C)C (configuration not stated)", "FALSE"],
  ["COc1ccc(C(=O)c2c(C)n(CCN3CCOCC3)c3ccccc23)cc1", "FALSE"],
  ["C=CCN1CC[C@]23c4c5ccc(O)c4O[C@H]2C(=O)CC[C@@]3(O)[C@H]1C5", "FALSE"],
  ["C[C@H]1O[C@@H](O[C@H]2[C@@H](O)C[C@H](O[C@H]3[C@@H](O)C[C@H](O[C@H]4CC[C@@]5(C)[C@H](CC[C@@H]6[C@@H]5CC[C@]5(C)[C@@H](C7=CC(=O)OC7)CC[C@]65O)C4)O[C@@H]3C)O[C@@H]2C)C[C@H](O)[C@@H]1O", "FALSE"],
  ["CC[C@@H](CO)NC(=O)[C@@H]1C=C2c3cccc4c3c(cn4C)C[C@H]2N(C)C1", "FALSE"],
  ["CN1CCN(C(=O)O[C@H]2c3nccnc3C(=O)N2c2ccc(Cl)cn2)CC1", "FALSE"],
  ["NP(N)(=O)NC(=O)c1ccc(F)cc1", "FALSE"],
  ["CN1C(=S)CN=C(c2ccccc2)c2cc(Cl)ccc21", "FALSE"],
  ["Oc1ccc(Cl)cc1Cc1ccccc1", "FALSE"],
  ["CC[N+](CC)(CC)CC", "FALSE"],
  ["Cc1cccc(C)c1NC1=NCCCS1", "FALSE"],
  ["CCCN1CCC[C@@H]2Cc3[nH]ncc3C[C@H]21", "FALSE"]
]}

* * *

Assay: qHTS for small molecule inhibitors of Yes1 kinase: Counter Assay (AID 686950);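 note: no kinase present so only ADP-Glo detection of a fixed ADP amount is tested; luminescence from ADP-Glo reporting ADP in a fixed ATP and ADP mixture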
Details: series mostly up to 76.9 µM
The source made the active and inactive calls. The call rests on the fitted dose curve; in most records, active means well fitted curve in the direction sought with a large enough effect; inactive means no such curve, though single readings can be large or run the other way.
property_measured: outcome

{"columns": ["molecule", "result_value"],
 "data": [
  ["CN(C)CCN(C)CCc1ccc(Cl)c(Cl)c1", "inactive"],
  ["Cn1cc(C2=C(c3cn(C4CCN(Cc5ccccn5)CC4)c4ccccc34)C(=O)NC2=O)c2ccccc21", "inactive"],
  ["C[C@@H]1[C@@H](C(=O)C[C@H]2O[C@@H]3O[C@]4(C)CC[C@@H]5[C@H](C)CC[C@@H]([C@H]2C)[C@@]35OO4)O[C@@H]2O[C@]3(C)CC[C@H]4[C@H](C)CC[C@@H]1[C@@]24OO3", "inactive"],
  ["CCCCC/C=C\\C/C=C\\C/C=C\\C/C=C\\CCCC(=O)NC1CC1", "inactive"],
  ["CC1=C2C[C@@H]3[C@@H](CC=C4C[C@@H](O)CC[C@@]43C)[C@@H]2CC[C@]12O[C@H]1C[C@H](C)CN[C@H]1[C@H]2C", "inactive"],
  ["CNC(=O)N1N=C(c2ccc(N)cc2)c2cc3c(cc2CC1C)OCO3 (stereo not drawn)", "inactive"],
  ["Cc1cc(SCc2sc(-c3ccc(C(F)(F)F)c(F)c3)nc2C)ccc1OCC(=O)O", "inactive"],
  ["C[C@]12CCC(=O)C(O)=C1CC[C@@H]1[C@@H]2CC[C@]2(C)C(=O)CC[C@@H]12", "inactive"]
]}
